targetOrTestSystem: LdIMPDH (Leishmania donovani)
Sequence (P21620 whole entry): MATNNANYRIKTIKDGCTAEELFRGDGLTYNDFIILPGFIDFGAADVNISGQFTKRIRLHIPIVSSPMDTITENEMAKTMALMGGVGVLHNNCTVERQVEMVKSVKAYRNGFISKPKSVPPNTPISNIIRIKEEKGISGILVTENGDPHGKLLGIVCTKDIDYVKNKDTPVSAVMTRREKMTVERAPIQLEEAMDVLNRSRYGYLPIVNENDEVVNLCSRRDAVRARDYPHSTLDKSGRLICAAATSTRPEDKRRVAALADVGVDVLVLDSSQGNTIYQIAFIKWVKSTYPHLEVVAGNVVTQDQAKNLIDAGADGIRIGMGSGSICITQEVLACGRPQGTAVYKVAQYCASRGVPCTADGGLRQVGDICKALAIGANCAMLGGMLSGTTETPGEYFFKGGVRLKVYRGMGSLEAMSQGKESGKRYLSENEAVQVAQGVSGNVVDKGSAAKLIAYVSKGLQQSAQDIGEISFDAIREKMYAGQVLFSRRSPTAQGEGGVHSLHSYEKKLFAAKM
procedureText: IMPDH inhibition, L. donovani enzyme
Format: biochemical
conditionInfo: read-out: Ki ADP; LdIMPDH
attributeMeasured: pKi
Numbers only, as −log10 of the molar value.

query: API: value(readout= pKi, system= LdIMPDH (Leishmania donovani), query= Nc1ncnc2c1ncn2[C@@H]1O[C@H](COP(=O)(O)OP(=O)(O)O)[C@@H](O)[C@H]1O )
result: 1.82

---

targetOrTestSystem: EcIMPDH (Escherichia coli, UniProt P0ADG7)
Sequence (P0ADG7 whole entry): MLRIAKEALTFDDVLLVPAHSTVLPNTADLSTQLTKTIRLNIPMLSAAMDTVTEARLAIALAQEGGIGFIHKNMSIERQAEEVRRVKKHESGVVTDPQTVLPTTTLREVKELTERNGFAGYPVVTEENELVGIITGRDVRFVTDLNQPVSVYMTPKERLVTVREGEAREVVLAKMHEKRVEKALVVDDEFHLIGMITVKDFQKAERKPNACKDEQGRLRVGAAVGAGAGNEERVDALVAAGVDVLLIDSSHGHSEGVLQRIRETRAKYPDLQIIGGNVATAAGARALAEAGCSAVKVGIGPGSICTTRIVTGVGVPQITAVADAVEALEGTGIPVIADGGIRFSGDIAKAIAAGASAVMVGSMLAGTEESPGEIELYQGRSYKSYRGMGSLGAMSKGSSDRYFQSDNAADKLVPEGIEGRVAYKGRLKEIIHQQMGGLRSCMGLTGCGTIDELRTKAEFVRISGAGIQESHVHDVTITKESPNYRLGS
procedureText: IMPDH inhibition, E. coli enzyme
Assay type: biochemical
attributeMeasured: Ki (mM)
Numbers only, in mM.

query: GET /values?readout=Ki&item= NC(=O)c1csc([C@@H]2O[C@H](CO)[C@@H](O)[C@H]2O)n1 [Tzf, tiazofurin]
result: 5.3

---

targetOrTestSystem: SpIMPDH (Streptococcus pyogenes)
Sequence (P0C0H6 whole entry): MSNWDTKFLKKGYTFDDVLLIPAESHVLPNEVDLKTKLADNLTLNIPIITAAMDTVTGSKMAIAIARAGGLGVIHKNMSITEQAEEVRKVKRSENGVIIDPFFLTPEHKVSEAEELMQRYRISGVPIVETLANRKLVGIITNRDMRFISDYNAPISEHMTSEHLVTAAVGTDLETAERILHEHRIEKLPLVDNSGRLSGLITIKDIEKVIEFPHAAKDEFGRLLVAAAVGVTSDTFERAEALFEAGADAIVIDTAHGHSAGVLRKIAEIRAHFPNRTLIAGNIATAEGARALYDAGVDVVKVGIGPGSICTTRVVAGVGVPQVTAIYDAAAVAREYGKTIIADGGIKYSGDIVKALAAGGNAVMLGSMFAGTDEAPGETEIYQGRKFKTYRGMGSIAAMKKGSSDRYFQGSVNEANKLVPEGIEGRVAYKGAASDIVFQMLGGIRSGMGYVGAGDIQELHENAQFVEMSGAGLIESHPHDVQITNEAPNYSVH
procedureText: biochemical
conditionInfo: read-out: Ki ADP; SpIMPDH
attributeMeasured: Ki

query: API: value(readout= Ki, system= SpIMPDH (Streptococcus pyogenes), query= Nc1ncnc2c1ncn2[C@@H]1O[C@H](COP(=O)(O)OP(=O)(O)O)[C@@H](O)[C@H]1O [ADP] )
result: 13 mM

---

targetOrTestSystem: HpIMPDH (Helicobacter pylori)
Sequence (P56088 1-481): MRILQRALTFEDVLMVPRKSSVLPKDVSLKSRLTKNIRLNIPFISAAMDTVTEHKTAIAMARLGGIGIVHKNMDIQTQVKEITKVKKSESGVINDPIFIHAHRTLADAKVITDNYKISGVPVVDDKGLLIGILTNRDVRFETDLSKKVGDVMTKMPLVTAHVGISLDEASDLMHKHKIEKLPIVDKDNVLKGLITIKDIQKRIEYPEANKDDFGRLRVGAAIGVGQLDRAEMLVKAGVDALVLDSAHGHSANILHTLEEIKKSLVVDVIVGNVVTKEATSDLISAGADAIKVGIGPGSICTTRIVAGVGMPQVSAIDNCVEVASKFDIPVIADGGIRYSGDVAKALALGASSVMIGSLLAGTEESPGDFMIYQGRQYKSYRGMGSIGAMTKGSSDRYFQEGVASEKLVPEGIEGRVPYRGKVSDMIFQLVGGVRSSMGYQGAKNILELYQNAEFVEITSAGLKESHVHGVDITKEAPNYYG
procedureText: IMPDH inhibition, H. pylori enzyme
Format: biochemical
attributeMeasured: pKi
Numbers only, as −log10 of the molar value.

query: GET /values?readout=pKi&item= NC(=O)c1csc([C@@H]2O[C@H](CO)[C@@H](O)[C@H]2O)n1
result: 2.89

---

targetOrTestSystem: EcIMPDH-S250A (Escherichia coli, UniProt P0ADG7, S250A)
Sequence (P0ADG7 whole entry S250A): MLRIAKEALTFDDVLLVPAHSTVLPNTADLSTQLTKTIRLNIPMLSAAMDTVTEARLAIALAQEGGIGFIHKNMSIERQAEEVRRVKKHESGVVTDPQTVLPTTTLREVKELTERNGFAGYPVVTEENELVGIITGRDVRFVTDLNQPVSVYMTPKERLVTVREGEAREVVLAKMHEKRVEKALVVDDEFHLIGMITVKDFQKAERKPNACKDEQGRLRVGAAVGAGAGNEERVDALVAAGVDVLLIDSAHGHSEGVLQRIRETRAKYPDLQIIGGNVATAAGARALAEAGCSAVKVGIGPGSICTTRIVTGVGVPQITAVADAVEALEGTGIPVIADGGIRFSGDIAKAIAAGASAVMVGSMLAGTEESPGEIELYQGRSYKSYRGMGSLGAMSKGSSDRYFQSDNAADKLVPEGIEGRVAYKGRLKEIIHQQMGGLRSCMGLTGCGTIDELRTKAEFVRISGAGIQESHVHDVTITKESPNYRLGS
procedureText: biochemical
attributeMeasured: Ki (mM)
One number for each entry, in mM.

query: GET /values?readout=Ki&item= NC(=O)c1csc([C@@H]2O[C@H](CO)[C@@H](O)[C@H]2O)n1
result: 2.5
